- method: Photolytic degradation of psilocin salts
For each entry below, report its half-life at 336 h, 2 mg/mL freebase psilocin value.
Answer format reminder: number followed by unit.

Some solved entries appear below for comparison.
1) CN(C)CCc1c[nH]c2cccc(O)c12.O=C(O)C(F)(F)F: 6.94 days
2) CN(C)CCc1c[nH]c2cccc(O)c12.Cl: 13.9 days
3) CN(C)CCc1c[nH]c2cccc(O)c12.O=C(O)c1ccccc1: 6.25 days

Please look at the following compound next.
Give the reported value of half-life at 336 h, 2 mg/mL freebase psilocin for this record: `CN(C)CCc1c[nH]c2cccc(O)c12.O=P(O)(O)O`
13.9 days

====

- method: Forced degradation of psilocin salts, oxidative (0.30% H2O2)
- test conditions: 0.30% H2O2 (oxidative forced degradation), half-life, 0.30% H2O2
reported endpoint: half-life at 2 mg/mL freebase psilocin

1. CN(C)CCc1c[nH]c2cccc(O)c12.O=P(O)(O)O: > 24 h

Please look at the following compound next.
Give the reported value of half-life at 2 mg/mL freebase psilocin for this record: `CN(C)CCc1c[nH]c2cccc(O)c12.O=C(O)C(F)(F)F`
> 24 h

====

- method: Chemical stability in 1.0 M NaHCO3 and 1.0 M HCl
- test conditions: 1.0 M NaHCO3
reported endpoint: half-life at 24 h, 5 mM (h)
Numbers only, in h.

Some solved entries appear below for comparison.
1) CN(C)CCc1c[nH]c2cccc(OC(=O)C3CC3)c12.O=C(O)/C=C/C(=O)O: 183
2) CN(C)CCc1c[nH]c2cccc(OC(=O)c3ccccc3)c12.O=C(O)/C=C/C(=O)O: 150
3) CN(C)CCc1c[nH]c2cccc(OC(=O)OCc3ccccc3)c12.O=C(O)/C=C/C(=O)O.O=CO: 11.7

Give the reported value of half-life at 24 h, 5 mM for this record: `CC(=O)Oc1cccc2[nH]cc(CCN(C)C)c12.O=C(O)/C=C/C(=O)O`
15

====

- method: Metabolic stability in human microsomes
- Assay type: in vitro ADME
- test conditions: Table S3
reported endpoint: Comment on microsome assay

1. CCOC(=O)Oc1cccc2[nH]cc(CCN(C)C)c12.O=C(O)/C=C/C(=O)O [Compound 4i]: Rapid degradation
2. CN(C)CCc1c[nH]c2cccc(OB(O)O)c12.O=C(O)/C=C/C(=O)O [Compound 5]: Rapid degradation
3. CN(C)CCc1c[nH]c2cccc(OC(=O)C3CC3)c12.O=C(O)/C=C/C(=O)O [Compound 4g]: Rapid degradation
4. CN(C)CCc1c[nH]c2cccc(OC(=O)OCc3ccccc3)c12.O=C(O)/C=C/C(=O)O.O=CO [Compound 4f]: Rapid degradation

====

For each entry below, report its remaining at 0.5 h, 1 μM value.
- method: Plasma stability in human plasma
- Format: in vitro ADME
- test conditions: human, pooled human plasma; 30 min
Answers are plain numbers, in %.

Some solved entries appear below for comparison.
1) CCOC(=O)Oc1cccc2[nH]cc(CCN(C)C)c12.O=C(O)/C=C/C(=O)O: 0
2) CN(C)CCc1c[nH]c2cccc(OP(=O)(O)O)c12 [Compound 8, 4-phosphoryloxy-N,N-dimethyltryptamine, reference compound]: 130
3) CC(=O)Oc1cccc2[nH]cc(CCN(C)C)c12.O=C(O)/C=C/C(=O)O: 0.2
4) CN(C)CCc1c[nH]c2cccc(OCc3ccccc3)c12: 105

Please look at the following compound next.
Give the reported value of remaining at 0.5 h, 1 μM for this record: `CN(C)CCc1c[nH]c2cccc(OC(=O)C3CC3)c12.O=C(O)/C=C/C(=O)O`
0
